SUBJECT_OF_TEST: Serine/threonine-protein kinase MARK1 (Homo sapiens) (UniProt Q9P0L2)
Sequence (Q9P0L2 whole entry, looked up): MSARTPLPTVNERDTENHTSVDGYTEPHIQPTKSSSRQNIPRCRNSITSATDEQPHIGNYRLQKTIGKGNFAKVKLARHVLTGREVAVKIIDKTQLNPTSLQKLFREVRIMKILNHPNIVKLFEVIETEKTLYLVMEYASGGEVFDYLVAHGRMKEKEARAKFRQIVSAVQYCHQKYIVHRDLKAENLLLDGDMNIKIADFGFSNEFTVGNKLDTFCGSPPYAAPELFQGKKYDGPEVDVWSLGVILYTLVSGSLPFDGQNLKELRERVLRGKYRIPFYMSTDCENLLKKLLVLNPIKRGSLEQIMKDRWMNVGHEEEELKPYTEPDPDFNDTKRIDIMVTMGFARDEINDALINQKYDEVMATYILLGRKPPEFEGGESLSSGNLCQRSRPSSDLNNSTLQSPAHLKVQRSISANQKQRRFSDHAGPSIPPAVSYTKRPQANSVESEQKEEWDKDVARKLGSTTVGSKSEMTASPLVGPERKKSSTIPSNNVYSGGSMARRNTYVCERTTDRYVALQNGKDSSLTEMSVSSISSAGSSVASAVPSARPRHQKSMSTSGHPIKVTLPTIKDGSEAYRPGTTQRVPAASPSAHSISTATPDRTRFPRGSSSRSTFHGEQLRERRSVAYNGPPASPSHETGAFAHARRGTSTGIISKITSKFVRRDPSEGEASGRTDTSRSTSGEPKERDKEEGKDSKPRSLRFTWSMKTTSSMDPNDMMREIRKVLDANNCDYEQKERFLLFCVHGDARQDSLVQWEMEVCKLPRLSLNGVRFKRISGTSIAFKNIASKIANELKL
CONDITION: at 0.1 µM
Description: GSK_PKIS: MARK1 mean inhibition at 0.1 uM [Nanosyn]
Label f if inhibition falls below 1%; label t in every other case.

>  <COMPOUND>
CCn1c(-c2nonc2N)nc2c(C#CC(C)(C)O)nc(CN3CCCC3)cc21

>  <CLASS_NAME>
t

$$$$
>  <COMPOUND>
COc1ccc2cc(-c3c(-c4ccncc4)nc(-c4ccc([S+](C)[O-])cc4)n3C)ccc2c1 (stereo not given)

>  <CLASS_NAME>
t

$$$$
>  <COMPOUND>
CCc1cccc(NC(=O)Nc2ccc(Oc3ccc4nc(NC(=O)OC)[nH]c4c3)cc2)c1

>  <CLASS_NAME>
t

$$$$
>  <COMPOUND>
NS(=O)(=O)c1cccc(-c2ccc3c(NC(=O)C4CC4)n[nH]c3c2)c1

>  <CLASS_NAME>
f

$$$$

----------
SUBJECT_OF_TEST: Tyrosine-protein kinase receptor UFO (Homo sapiens)
CONDITION: at 1 µM
Description: GSK_PKIS: AXL mean inhibition at 1 uM [Nanosyn]
inhibition values by entry

>  <COMPOUND>
O=C(Nc1n[nH]c2nc(-c3ccco3)c(Br)cc12)C1CC1

>  <SUBJECT_OF_TEST>
Tyrosine-protein kinase receptor UFO (Homo sapiens)

>  <inhibition / %>
-1.16

$$$$
>  <COMPOUND>
Cc1cc(O)cc(C)c1/C=C/c1cncc(-c2nn[nH]n2)c1

>  <SUBJECT_OF_TEST>
Tyrosine-protein kinase receptor UFO (Homo sapiens)

>  <inhibition / %>
-3.63

$$$$
>  <COMPOUND>
NC(=O)c1cccc(Nc2nccc(Nc3cccc4[nH]ncc34)n2)c1

>  <SUBJECT_OF_TEST>
Tyrosine-protein kinase receptor UFO (Homo sapiens)

>  <inhibition / %>
7.82

$$$$
>  <COMPOUND>
CS(=O)(=O)CCNCc1ccc(-c2ccc3ncnc(Nc4ccc(OCc5cccc(F)c5)c(C(F)(F)F)c4)c3c2)o1

>  <SUBJECT_OF_TEST>
Tyrosine-protein kinase receptor UFO (Homo sapiens)

>  <inhibition / %>
-5.02

$$$$
>  <COMPOUND>
c1cnn2ncc(-c3ccnc(Nc4ccc5c(c4)OCCO5)n3)c2c1

>  <SUBJECT_OF_TEST>
Tyrosine-protein kinase receptor UFO (Homo sapiens)

>  <inhibition / %>
10.1

$$$$
>  <COMPOUND>
CC1=C(C(=O)Nc2ccc3[nH]ncc3c2)C(c2ccc(Cl)c(Cl)c2)CC(=O)N1 (stereo not given)

>  <SUBJECT_OF_TEST>
Tyrosine-protein kinase receptor UFO (Homo sapiens)

>  <inhibition / %>
-5.55

$$$$
>  <COMPOUND>
N#Cc1c(NC(=O)c2cccc3ccccc23)sc2c1CCCC2

>  <SUBJECT_OF_TEST>
Tyrosine-protein kinase receptor UFO (Homo sapiens)

>  <inhibition / %>
-1.11

$$$$
>  <COMPOUND>
CN(C)c1cc2c(Nc3ccc4nc(Cc5ccccc5)[nH]c4c3)ncnc2cn1

>  <SUBJECT_OF_TEST>
Tyrosine-protein kinase receptor UFO (Homo sapiens)

>  <inhibition / %>
-3.19

$$$$
>  <COMPOUND>
CS(=O)(=O)CCN(CC#N)Cc1ccc(-c2ccc3ncnc(Nc4ccc(OCc5cccc(F)c5)c(Cl)c4)c3c2)o1

>  <SUBJECT_OF_TEST>
Tyrosine-protein kinase receptor UFO (Homo sapiens)

>  <inhibition / %>
-5.07

$$$$
>  <COMPOUND>
CC(C)=Cc1cccc2c1/C(=N/Nc1ccc(S(N)(=O)=O)cc1)C(=O)N2

>  <SUBJECT_OF_TEST>
Tyrosine-protein kinase receptor UFO (Homo sapiens)

>  <inhibition / %>
5.18

$$$$

----------
SUBJECT_OF_TEST: Mitogen-activated protein kinase 13 (Homo sapiens)
CONDITION: at 0.1 µM
inhibition values by entry

>  <CHEMICAL_SMILES>
CC(C)=Cc1cccc2c1/C(=N/Nc1ccc(S(N)(=O)=O)cc1)C(=O)N2

>  <inhibition>
0.28%

$$$$
>  <CHEMICAL_SMILES>
COC(=O)Nc1nc2cc(Oc3ccc(NC(=O)Nc4cccc(C(=O)O)c4)cc3)ccc2[nH]1

>  <inhibition>
-0.17%

$$$$
>  <CHEMICAL_SMILES>
COc1ccccc1Nc1ncc(-c2ccccc2)o1

>  <inhibition>
5.83%

$$$$
>  <CHEMICAL_SMILES>
Cc1ccc(C(=O)NC2CCCCC2)cc1-c1ccc(C(=O)NCC2CC2)cc1

>  <inhibition>
1.77%

$$$$
>  <CHEMICAL_SMILES>
COc1cccc(-n2ncc3c(N/N=C/c4cccc(F)c4)ncnc32)c1

>  <inhibition>
2.14%

$$$$
>  <CHEMICAL_SMILES>
CNC(=O)c1cncc(/C=C/c2c(Cl)cccc2Cl)c1

>  <inhibition>
3.64%

$$$$
>  <CHEMICAL_SMILES>
Nc1nc(-c2ccccn2)c(-c2ccc3ncccc3n2)s1

>  <inhibition>
2.8%

$$$$
>  <CHEMICAL_SMILES>
[O-][S+]1CCN(Cc2ccc(-c3ccc4ncnc(Nc5ccc(OCc6ccccc6)c(F)c5)c4c3)o2)CC1

>  <inhibition>
-1.08%

$$$$
>  <CHEMICAL_SMILES>
COc1cc2ncn(-c3cc(OCc4ccccc4Cl)c(C(N)=O)s3)c2cc1OC

>  <inhibition>
0.95%

$$$$
>  <CHEMICAL_SMILES>
Fc1cccc(COc2ccc(Nc3ncnc4sc(-c5cccs5)cc34)cc2Cl)c1

>  <inhibition>
1.26%

$$$$

----------
SUBJECT_OF_TEST: Fibroblast growth factor receptor 4 (Homo sapiens) (UniProt P22455)
Sequence (P22455 22-802 limits assumed): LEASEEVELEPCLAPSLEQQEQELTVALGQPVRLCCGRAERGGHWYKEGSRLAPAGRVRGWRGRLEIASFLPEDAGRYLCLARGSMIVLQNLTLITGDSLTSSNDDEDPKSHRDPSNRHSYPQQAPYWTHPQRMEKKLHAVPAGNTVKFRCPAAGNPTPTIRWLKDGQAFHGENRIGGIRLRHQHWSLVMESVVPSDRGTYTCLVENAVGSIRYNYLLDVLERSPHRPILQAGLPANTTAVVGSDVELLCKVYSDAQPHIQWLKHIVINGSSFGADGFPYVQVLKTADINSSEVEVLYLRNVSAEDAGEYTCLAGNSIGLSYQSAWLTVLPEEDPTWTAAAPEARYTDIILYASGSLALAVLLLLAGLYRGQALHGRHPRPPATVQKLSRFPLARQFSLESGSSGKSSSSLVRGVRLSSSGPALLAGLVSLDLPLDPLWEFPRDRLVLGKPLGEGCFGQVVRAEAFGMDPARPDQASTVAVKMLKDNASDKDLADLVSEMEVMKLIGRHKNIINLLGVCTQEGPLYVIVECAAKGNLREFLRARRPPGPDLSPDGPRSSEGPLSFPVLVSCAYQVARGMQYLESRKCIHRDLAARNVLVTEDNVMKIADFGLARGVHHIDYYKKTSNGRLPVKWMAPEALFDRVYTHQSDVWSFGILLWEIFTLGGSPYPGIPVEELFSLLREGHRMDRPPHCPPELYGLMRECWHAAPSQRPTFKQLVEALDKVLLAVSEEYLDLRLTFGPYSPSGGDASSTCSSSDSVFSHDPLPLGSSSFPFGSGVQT
CONDITION: at 1 µM
inhibition values by entry

>  <CHEMICAL_SMILES>
Cn1cc(C=C2C(=O)Nc3cccnc32)c2ccccc21

>  <UNIT_NAME>
%

>  <inhibition>
14.1

$$$$
>  <CHEMICAL_SMILES>
CCn1c(-c2nonc2N)nc2cncc(C(=O)N3CC[C@H](N)C3)c21

>  <UNIT_NAME>
%

>  <inhibition>
0.42

$$$$
>  <CHEMICAL_SMILES>
Cc1cccc(-c2n[nH]cc2-c2ccc3ncccc3n2)n1

>  <UNIT_NAME>
%

>  <inhibition>
1.18

$$$$
>  <CHEMICAL_SMILES>
COc1ccc(COc2ccc(Cc3cnc(N)nc3N)cc2OC)cc1

>  <UNIT_NAME>
%

>  <inhibition>
3.16

$$$$
>  <CHEMICAL_SMILES>
COC(=O)Nc1nc2cc(Oc3ccc(NC(=O)Nc4cccc(C(=O)O)c4)cc3)ccc2[nH]1

>  <UNIT_NAME>
%

>  <inhibition>
-1.22

$$$$
>  <CHEMICAL_SMILES>
CCn1c(-c2nonc2N)nc2c(N3CCCC3)nccc21

>  <UNIT_NAME>
%

>  <inhibition>
-0.48

$$$$

----------
SUBJECT_OF_TEST: Serine/threonine-protein kinase PLK1 (Homo sapiens)
CONDITION: at 0.1 µM
Label Not met if inhibition falls below 6%; label Met in every other case.

>  <CHEMICAL_SMILES>
CCCN1CCC(Oc2cc(Nc3nc(Nc4cccc(F)c4C(N)=O)c4cc[nH]c4n3)c(OC)cc2Cl)CC1

>  <CLASS_NAME>
Met

$$$$
>  <CHEMICAL_SMILES>
COc1ccc(COc2ccc(Cc3cnc(N)nc3N)cc2OC)cc1

>  <CLASS_NAME>
Not met

$$$$
>  <CHEMICAL_SMILES>
CCn1c(-c2nonc2N)nc2c(C#CC(C)(C)O)nc(OC[C@@H](N)c3ccccc3)cc21

>  <CLASS_NAME>
Met

$$$$
>  <CHEMICAL_SMILES>
Cn1cc(C=C2C(=O)Nc3cccnc32)c2ccccc21

>  <CLASS_NAME>
Not met

$$$$

----------
SUBJECT_OF_TEST: Serine/threonine-protein kinase MRCK alpha (Homo sapiens)
CONDITION: at 0.1 µM

>  <COMPOUND>
c1cnn2ncc(-c3ccnc(Nc4ccc5c(c4)OCCO5)n3)c2c1

>  <inhibition / %>
-0.46

$$$$
>  <COMPOUND>
COc1ccc(COc2ccc(Cc3cnc(N)nc3N)cc2OC)cc1

>  <inhibition / %>
1.99

$$$$
>  <COMPOUND>
CCn1c(-c2nonc2N)nc2cncc(C(=O)N3CCNCC3)c21

>  <inhibition / %>
5.33

$$$$
>  <COMPOUND>
Cc1ccc(NC(=O)c2ccnc(N3CCCC3)c2)cc1-c1ccc(C(=O)NCC2CC2)cc1

>  <inhibition / %>
1.01

$$$$
>  <COMPOUND>
CC1=C(C(=O)Nc2ccc3[nH]ncc3c2)C(c2ccc3ccccc3c2)CC(=O)N1 (stereo not given)

>  <inhibition / %>
3.1

$$$$
>  <COMPOUND>
COc1cccc(-n2ncc3c(N/N=C/c4cccc(F)c4)ncnc32)c1

>  <inhibition / %>
0.1

$$$$
>  <COMPOUND>
CC(=O)Nc1cccc(C#Cc2cncnc2Nc2ccc(OCc3cccc(F)c3)c(Cl)c2)n1

>  <inhibition / %>
2.04

$$$$
>  <COMPOUND>
Cn1cc(C=C2C(=O)Nc3cccnc32)c2ccccc21

>  <inhibition / %>
0.96

$$$$
>  <COMPOUND>
Cc1nn(C)c2cc(N(C)c3ccnc(Nc4cccc(S(N)(=O)=O)c4)n3)ccc12

>  <inhibition / %>
-1.1

$$$$
>  <COMPOUND>
[O-][S+]1CCN(Cc2ccc(-c3ccc4ncnc(Nc5ccc(OCc6ccccc6)c(F)c5)c4c3)o2)CC1

>  <inhibition / %>
0.13

$$$$
